# Test system: Trichophyton mentagrophytes
# Assay summary: Antifungal activity against Trichophyton mentagrophytes by broth microdilution method
# Assay type: functional

Line notation	Target system	MIC (µg/mL)
Cc1ccc(OC2=C(Sc3ccccc3)C(=O)c3ccccc3C2=O)cc1	Trichophyton mentagrophytes	0.78
O=C1C(Cl)=C(Oc2cccc3ccccc23)C(=O)c2ccccc21	Trichophyton mentagrophytes	1.56
COc1ccc(OC2=C(Cl)C(=O)c3ccccc3C2=O)cc1	Trichophyton mentagrophytes	1.56
O=C1C=C(Sc2ccccc2)C(=O)c2ccccc21	Trichophyton mentagrophytes	0.78
O=C1C(Cl)=C(Oc2ccccc2OC2=C(Cl)C(=O)c3ccccc3C2=O)C(=O)c2ccccc21	Trichophyton mentagrophytes	50
O=C1C(Cl)=C(Oc2ccc3ccccc3c2)C(=O)c2ccccc21	Trichophyton mentagrophytes	50
